Measured values drawn from paper PMC9482650 for this set.

Biological target: SCRIB_1, Q14160
Sequence (Q14160 718-814): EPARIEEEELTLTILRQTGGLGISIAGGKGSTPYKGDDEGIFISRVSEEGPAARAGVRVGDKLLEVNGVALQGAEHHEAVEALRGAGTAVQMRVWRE
Assay: holdup assay
Design: key: below the threshold = too weak to quantify, mostly under pKd 3.1 to 4
Settings: plain residues with an end cap or a label only (N-terminal biotin on a linker: ado-ado)
So I've got a bunch of binders here, and I need their pKd values.
Give bare numbers.

>  <BINDER>
PSHPRLQTHV [KIRREL2, Q6UWL6]

>  <pKd>
3.88

$$$$
>  <BINDER>
DTKNYKQTSV [CRIPT, Q9P021]

>  <pKd>
4.88

$$$$

Batch lookup, pKd per entry.
1. TGLWKHETTV [ADGRA3, Q8IWK6]
2. ELSATVTTDC [TRIP6, Q15654]
3. RDPPAEWTRV [PTPN18, Q99952]

Result string:
1: 4.74; 2: 4.48; 3: 4.1
